What combination Emax was measured for each of the following?
# System: SKG-IIIa (Cervical Carcinoma)
# test description: combination Emax (second highest fraction inhibited in the dose matrix, 72 h); higher = more inhibition; extreme values may be limits of the assay

Prompt: Read the entry C[C@@H]1COCCN1c1cc(C2([S@](C)(=N)=O)CC2)nc(-c2ccnc3[nH]ccc23)n1 [AZD6738] + C1CC(C1)(C(=O)[O-])C(=O)[O-].N.N.[Pt+2] [Carboplatin] (first compound max 10 µM, 7x7, partner max 10 µM) and write its reported combination Emax.
Completion: 0.407

Prompt: Read the entry CC1(C)CCC(CN2CCN(c3ccc(C(=O)NS(=O)(=O)c4ccc(NCC5CCOCC5)c([N+](=O)[O-])c4)c(Oc4cnc5[nH]ccc5c4)c3)CC2)=C(c2ccc(Cl)cc2)C1 [Venetoclax] + C[C@@H]1COCCN1C2=NC(=NC(=C2)C3(CC3)[S@](=N)(=O)C)C4=C5C=CNC5=NC=C4 [AZD6738] (first compound max 1 µM, 7x7, partner max 10 µM) and write its reported combination Emax.
Completion: 0.368

Prompt: Read the entry Cn1cnc2c(F)c(Nc3ccc(Br)cc3Cl)c(C(=O)NOCCO)cc21 [Selumetinib] + CCN(CCO)CCCOc1ccc2c(Nc3cc(CC(=O)Nc4cccc(F)c4)[nH]n3)ncnc2c1 [AZD2811] (first compound max 10 µM, 7x7, partner max 1 µM) and write its reported combination Emax.
Completion: 0.321

Prompt: Read the entry Cc1c2c(nn1C)CSCc1cc(n(C)n1)CSc1cc(c3ccccc3c1)OCCCc1c(C(=O)O)n(C)c3c-2c(Cl)ccc13 [AZD5991] + Cn1cnc2c(F)c(Nc3ccc(Br)cc3Cl)c(C(=O)NOCCO)cc21 [Selumetinib] (first compound max 1 µM, 7x7, partner max 3 µM) and write its reported combination Emax.
Completion: 0.24

Prompt: Read the entry CN(CCO)CC[C@H](CSc1ccccc1)Nc1ccc(S(=O)(=O)NC(=O)c2ccc(N3CCC([C@@H](O)c4ccccc4-c4ccc(Cl)cc4)CC3)cc2)cc1S(=O)(=O)C(F)(F)F [AZD4320] + Nc1ccn([C@@H]2O[C@H](CO)[C@@H](O)C2(F)F)c(=O)n1 [Gemcitabine] (first compound max 1 µM, 7x7, partner max 0.3 µM) and write its reported combination Emax.
Completion: 0.475

Prompt: Read the entry CCc1c2c(nc3ccc(O)cc13)-c1cc3c(c(=O)n1C2)COC(=O)[C@]3(O)CC [SN-38] + O=C(c1cc(Cc2n[nH]c(=O)c3ccccc23)ccc1F)N1CCN(C(=O)C2CC2)CC1 [Olaparib] (first compound max 0.3 µM, 7x7, partner max 10 µM) and write its reported combination Emax.
Completion: 0.389

Prompt: Read the entry CN(CCO)CC[C@H](CSc1ccccc1)Nc1ccc(S(=O)(=O)NC(=O)c2ccc(N3CCC([C@@H](O)c4ccccc4-c4ccc(Cl)cc4)CC3)cc2)cc1S(=O)(=O)C(F)(F)F [AZD4320] + Cc1cc2ncnn2cc1Nc1ncc2c(n1)n(C1CCOCC1)c(=O)n2C [AZD7648] (first compound max 1 µM, 7x7, partner max 10 µM) and write its reported combination Emax.
Completion: 0.12

* * *

What Bliss excess was measured for each of the following?
# System: LCLC-103H (Non-Small Cell Lung Carcinoma);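 note: after 72 h of two-drug dosing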
# test description: Bliss excess, mean over the matrix (fraction); higher = more synergy
// no unit, no text: just the number

Prompt: Read the entry COc1cccc(OCCCN)c1-c1cc(Nc2cnc(C#N)cn2)n[nH]1 [Prexasertib] + CN(C)CCCOc1ccc(-c2ccc3ncc4c(c3c2)n(C2CCOCC2)c(=O)n4C)cn1 [AZD0156] (first compound max 1 µM, 7x7, partner max 1 µM) and write its reported Bliss excess.
Completion: -0.0391

Prompt: Read the entry Cc1nc(-c2cn3c(n2)-c2ccc(-c4cnn(C(C)(C)C(N)=O)c4)cc2OCC3)n(C(C)C)n1 [Taselisib] + O=C(Nc1ccc2[nH]nc(-c3ccncc3)c2c1)[C@@H]1CCN(CC(=O)N2CCN(c3ccc(-c4ncccn4)cc3)CC2)C1 [SCH772984] (first compound max 10 µM, 7x7, partner max 5 µM) and write its reported Bliss excess.
Completion: 0.0056

Prompt: Read the entry CC(=O)c1c(C)c2cnc(Nc3ccc(N4CCNCC4)cn3)nc2n(C2CCCC2)c1=O [Palbociclib] + Cc1c2c(nn1C)CSCc1cc(n(C)n1)CSc1cc(c3ccccc3c1)OCCCc1c(C(=O)O)n(C)c3c-2c(Cl)ccc13 [AZD5991] (first compound max 10 µM, 7x7, partner max 1 µM) and write its reported Bliss excess.
Completion: -0.0151

Prompt: Read the entry CN(C)CCCOc1ccc(-c2ccc3ncc4c(c3c2)n(C2CCOCC2)c(=O)n4C)cn1 [AZD0156] + C=CCn1c(=O)c2cnc(Nc3ccc(N4CCN(C)CC4)cc3)nc2n1-c1cccc(C(C)(C)O)n1 [AZD1775] (first compound max 1 µM, partner max 1 µM) and write its reported Bliss excess.
Completion: -0.0079
